Recorded IC50 values for a group of compounds are listed next.
molecular target: UniProtKB P00746; assay: Human Factor D assay; format: biochemical; conditions: Table 4; Factor D inhibition, substrate Z-L-Lys-SBzl
Sequence (P00746 26-253): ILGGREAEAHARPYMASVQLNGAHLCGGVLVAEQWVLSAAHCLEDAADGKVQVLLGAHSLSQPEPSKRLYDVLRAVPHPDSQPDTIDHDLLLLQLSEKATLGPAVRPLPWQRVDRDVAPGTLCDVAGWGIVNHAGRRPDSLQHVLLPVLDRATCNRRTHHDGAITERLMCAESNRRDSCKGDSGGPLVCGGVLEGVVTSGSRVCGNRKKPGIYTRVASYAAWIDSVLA

Cc1cccc(NC(=O)[C@@H]2CC=CCN2C(=O)Cn2cc(C(N)=O)c3cc(-c4cnc5cc(C)nn5c4)ccc32)n1 [Compound 612]    > 10 µM
Cc1cccc(NC(=O)[C@@H]2CCC(F)CCN2C(=O)Cn2cc(C(N)=O)c3cc(-c4cnc(C)nc4)ccc32)n1 (stereo partly drawn) [Compound 578]    > 10 µM
Cc1cccc(C[C@H](O)[C@@H]2C[C@@H](F)CN2C(=O)Cn2cc(C(N)=O)c3cc(-c4cnc(C)nc4)ccc32)n1 [Compound 559]    > 10 µM
CC(=O)c1nn(CC(=O)N2C[C@H](F)C[C@H]2CC(=O)Nc2cccc(Br)n2)c2ccc(-c3cnc(C)nc3)cc12 [Compound 580]    > 10 µM
Cc1cccc(NC(=O)[C@@H]2CCC(F)CCN2C(=O)Cn2cc(C(N)=O)c3cc(-c4ccc5ccccc5c4)ccc32)n1 (stereo partly drawn) [Compound 594]    > 10 µM

Please find the next compound below.
IN: Endpoint output: IC50 of COc1ncc(-c2ccc3c(c2)c(C(C)=O)nn3CC(=O)N2C[C@H](F)C[C@H]2C(=O)Nc2nc(Br)ccc2C)cn1 [Compound 554] . Value?
OUT: < 1 µM

Data provenance is patent US11407738B2.
